Origin of the recorded values: ChEMBL document CHEMBL1137295

target: Human immunodeficiency virus type 1 protease (Human immunodeficiency virus 1, UniProt Q72874, A71V/G73S/I84V/L10I/L63P/L90M); assay: Inhibition of HIV1 protease L10I/L63P/A71V/G73S/I84V/L90M mutant
Sequence (Q72874 entry or part of it A71V/G73S/I84V/L10I/L63P/L90M): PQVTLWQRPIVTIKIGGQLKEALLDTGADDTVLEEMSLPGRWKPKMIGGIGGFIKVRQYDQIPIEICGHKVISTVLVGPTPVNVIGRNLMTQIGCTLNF
# Ki per record follows
The reply should contain only the number, in nM.

Field: example entries. Status: answers known.
## Task State the recorded Ki for this entry: CC(=O)c1cccc(N2C[C@@H](C(=O)N[C@@H](Cc3ccccc3)[C@H](O)CN(CC(C)C)S(=O)(=O)c3ccc4c(c3)OCO4)OC2=O)c1
## Result 3.51

## Task Thanks! And COc1ccc(S(=O)(=O)N(CC(C)C)C[C@@H](O)[C@H](Cc2ccccc2)NC(=O)[C@@H]2CN(c3cccc(F)c3)C(=O)O2)cc1 ?
## Result 4.94

## Task Next: CC(C)CN(C[C@@H](O)[C@H](Cc1ccccc1)NC(=O)[C@@H]1CN(c2cccc(C(F)(F)F)c2)C(=O)O1)S(=O)(=O)c1ccc(N)cc1
## Result 12.3

New cases:
## Task State the recorded Ki for this entry: COc1ccc(S(=O)(=O)N(CC(C)C)C[C@@H](O)[C@H](Cc2ccccc2)NC(=O)[C@@H]2CN(c3cccc(C(C)=O)c3)C(=O)O2)cc1
## Result 3.36

## Task And COc1ccc(S(=O)(=O)N(CC(C)C)C[C@@H](O)[C@H](Cc2ccccc2)NC(=O)[C@@H]2CN(c3ccc(F)c(F)c3)C(=O)O2)cc1 ?
## Result 8.69

## Task Try COc1ccc(S(=O)(=O)N(CC(C)C)C[C@@H](O)[C@H](Cc2ccccc2)NC(=O)[C@@H]2CN(c3ccc(C(C)=O)cc3)C(=O)O2)cc1 next.
## Result 1.94

## Task What do we get for CC(C)CN(C[C@@H](O)[C@H](Cc1ccccc1)NC(=O)[C@@H]1CN(c2ccccc2)C(=O)O1)S(=O)(=O)c1ccc(N)cc1 ?
## Result 10.3
